Test system: RPMI-8226 leukemia
Assay: NCI tumour cell line growth inhibition, 48 h
Experimental endpoint: TGI

>  <Compound>
CCCCCc1cc2c(cc1O)CC[C@@H]1[C@@H]2CC[C@]2(C)[C@@H](O)CC[C@@H]12

>  <Experimental endpoint>
TGI

>  <Endpoint value>
62.2 µM

$$$$
>  <Compound>
O=C(c1ccc2ccccc2c1)C1S(=O)(=O)OCCOS1(=O)=O

>  <Experimental endpoint>
TGI

>  <Endpoint value>
> 100 µM

$$$$
>  <Compound>
CC1=CC(O)C(O)C2(C)C1CC1OC(=O)C(O)C3C(C)C(O)C4(O)OCC13C42 (stereo unspecified)

>  <Experimental endpoint>
TGI

>  <Endpoint value>
108 µM

$$$$
>  <Compound>
O=C1NC(=O)/C(=C/C=C/c2ccccc2)S1

>  <Experimental endpoint>
TGI

>  <Endpoint value>
> 96.5 µM

$$$$
>  <Compound>
COc1ccc2c(c1)CCC1C2CC[C@@]2(C)C1CC[C@@]2(O)CNC(=O)/C=C/c1ccc(O)c(OC)c1 (stereo partly specified)

>  <Experimental endpoint>
TGI

>  <Endpoint value>
53.9 µM

$$$$
>  <Compound>
Nc1ccc2c(c1)C(=O)c1ccccc1-2

>  <Experimental endpoint>
TGI

>  <Endpoint value>
> 100 µM

$$$$
>  <Compound>
O=C(c1ccccc1)C1C(C(=O)c2ccccc2)N1Cc1ccccc1 (stereo unspecified)

>  <Experimental endpoint>
TGI

>  <Endpoint value>
> 100 µM

$$$$
>  <Compound>
Cc1c2c3cc(O)ccc3nc-2n(C)c2ccccc12

>  <Experimental endpoint>
TGI

>  <Endpoint value>
> 100 µM

$$$$
>  <Compound>
COc1ccc(/C=C2\Cc3ccccc3C2=O)cc1OC

>  <Experimental endpoint>
TGI

>  <Endpoint value>
> 100 µM

$$$$
>  <Compound>
CN(C(=O)C1(C(=O)C=[N+]=[N-])CC1)c1ccccc1

>  <Experimental endpoint>
TGI

>  <Endpoint value>
> 100 µM

$$$$
>  <Compound>
CN(C)C[C@H]1CC[C@@H](CN(C)C)C1=O

>  <Experimental endpoint>
TGI

>  <Endpoint value>
> 12.9 µM

$$$$

====

Below is a list of entries, each paired with its recorded TGI value.
Tested on: K-562 leukemia
Test: NCI tumour cell line growth inhibition, 48 h

>  <Compound>
CC1(C)CCC[C@]23C(=O)O[C@](O)(C(=O)C4=C[C@@](C)(/C=C/CCCc5ccc6ccc7cccc8ccc5c6c78)CC[C@@]42O)[C@@H]13

>  <TGI>
3.19 µM

$$$$
>  <Compound>
Cc1ccc(S(=O)(=O)N(/N=C(\N)Oc2ccc(Cl)cc2)C(=N)Oc2ccc(Cl)cc2)cc1

>  <TGI>
> 100 µM

$$$$
>  <Compound>
CC1(C)N=C(N)N=C(N)N1c1cccc(C#N)c1

>  <TGI>
> 100 µM

$$$$
>  <Compound>
CC(=O)Oc1ccc(OC(C)=O)c2ccccc12

>  <TGI>
22 µM

$$$$
>  <Compound>
Nc1ccc(-c2nc3ccc4[nH]ncc4c3c3c2CCCC3)cc1F

>  <TGI>
22.8 µM

$$$$
>  <Compound>
CC(C)(CO)CNc1nc(N)nc(Cl)c1N

>  <TGI>
> 100 µM

$$$$
>  <Compound>
CCCn1c(C23CC4CC(CC(C4)C2)C3)nc2ccc(Cl)cc2c1=O

>  <TGI>
> 100 µM

$$$$
>  <Compound>
O=C(NCc1cccnc1)/C(=C\c1ccc(Br)cc1)S(=O)(=O)c1ccccc1

>  <TGI>
13 µM

$$$$
>  <Compound>
S=c1nc(-c2nc(=S)[nH]c3c2CCCCCCCCCC3)c2c([nH]1)CCCCCCCCCC2

>  <TGI>
> 100 µM

$$$$
>  <Compound>
N/C(=N\NS(=O)(=O)c1ccccc1)Oc1ccc(Cl)cc1

>  <TGI>
> 100 µM

$$$$
>  <Compound>
Cc1cccc(C(C)(C)C)c1NC(=O)/C(Cc1nc2ccc([N+](=O)[O-])cc2[nH]c1=O)=N/NC(=O)C[N+](C)(C)C

>  <TGI>
> 100 µM

$$$$
>  <Compound>
CCOC(=O)c1sc(-c2ccc(OS(=O)(=O)c3cccs3)c(C=O)c2)nc1C

>  <TGI>
> 100 µM

$$$$
>  <Compound>
Cn1c2c([N+](=O)[O-])[se]nc2c(=O)n1-c1ccc([N+](=O)[O-])cc1

>  <TGI>
> 100 µM

$$$$
>  <Compound>
Nc1ncnc2c1c(C(F)(F)F)cn2[C@@H]1O[C@H](CO)[C@@H](O)[C@H]1O

>  <TGI>
1.41 µM

$$$$
>  <Compound>
C/C(O)=C(\C=N\C(N)=S)C(=O)Nc1ccccc1C

>  <TGI>
> 100 µM

$$$$
>  <Compound>
CC(=O)OCC1OC(OC2C(COC(C)=O)OC(OCCC[S-])C(OC(C)=O)C2OC(C)=O)C(OC(C)=O)C(OC(C)=O)C1OC(C)=O.[Au+].c1ccc(CN2[CH-]N(Cc3ccccc3)C(c3ccccc3)=C2c2ccccc2)cc1 (centres undefined)

>  <TGI>
14.5 µM

$$$$
>  <Compound>
Oc1ccc2oc3ncc(Cl)c(-c4ccccc4)c3c2c1

>  <TGI>
> 100 µM

$$$$
>  <Compound>
C(=N\Nc1nnc2c(n1)[nH]c1ccccc12)/c1cccnc1

>  <TGI>
> 100 µM

$$$$
>  <Compound>
Cc1nc(C)c(C(=O)Nc2cccc3c2C(=O)NC3=O)cc1C(=O)Nc1cccc2c1C(=O)NC2=O

>  <TGI>
> 100 µM

$$$$

====

Catalogue of GI50 readings, one per entry.
Tested on: OVCAR-4 ovarian
Test: NCI tumour cell line growth inhibition, 48 h

>  <Compound>
Cc1ccc2c(c1)C(=O)c1c-2n(CCCN)c(=O)c2cc([N+](=O)[O-])ccc12

>  <GI50>
0.605 µM

$$$$
>  <Compound>
CC(CN=C(CC(=O)c1ccc(Br)cc1)c1ccccc1)N=C(CC(=O)c1ccc(Br)cc1)c1ccccc1 (stereo not given)

>  <GI50>
8.15 µM

$$$$
>  <Compound>
COC(=O)C[CH](C(=O)OC)[Ge]([CH3])([CH3])[S]c1ccccc1 (stereo not given)

>  <GI50>
18.1 µM

$$$$
>  <Compound>
Cn1c2ccccc2c(=Nc2ccccc2)c2c3ccccc3[nH]c21

>  <GI50>
5.41 µM

$$$$
>  <Compound>
C=C1CCC2C3(C)COC(c4ccc(NC(C)=O)cc4)OC3CCC2(C)C1C/C=C1/C(=O)OCC1O (stereo not given)

>  <GI50>
6.81 µM

$$$$

====

Tested on: SF-268 CNS
Experiment: NCI tumour cell line growth inhibition, 48 h
Here the recorded TGI is given for each entry.
Experimental endpoint: TGI

>  <Compound>
CN(C)CCCNc1nn2c(=O)c3ccccc3nc2c2ccccc12

>  <Experimental endpoint>
TGI

>  <Endpoint value>
37.9 µM

$$$$
>  <Compound>
CN(C)CCOC(=O)COc1ccc(Cl)cc1

>  <Experimental endpoint>
TGI

>  <Endpoint value>
> 100 µM

$$$$
>  <Compound>
CC(C)(CO)CNc1nc(N)nc(Cl)c1N

>  <Experimental endpoint>
TGI

>  <Endpoint value>
> 100 µM

$$$$
>  <Compound>
CC(CCC(=O)O)[C@H]1CCC2[C@H]3C(CC[C@@]21C)[C@@]1(C)CCC(O)C[C@H]1C[C@@H]3O (stereo partly drawn)

>  <Experimental endpoint>
TGI

>  <Endpoint value>
> 100 µM

$$$$
>  <Compound>
COc1ccc(-c2oc(=O)ccc2C#Cc2cc(OC)c(OC)c(OC)c2)cc1O

>  <Experimental endpoint>
TGI

>  <Endpoint value>
58.5 µM

$$$$
>  <Compound>
Cc1cc2ccccc2n1CC(=O)NCC(C)C

>  <Experimental endpoint>
TGI

>  <Endpoint value>
> 100 µM

$$$$
>  <Compound>
CCCCc1c2c(nc3c1CCc1cc4c(nc1-3)-c1nc3c(c(CCCC)c1CC4)CCC/C3=C\c1ccccc1)/C(=C/c1ccccc1)CCC2

>  <Experimental endpoint>
TGI

>  <Endpoint value>
> 100 µM

$$$$
>  <Compound>
Nc1nc(Cl)cc(N=Nc2ccccc2)n1

>  <Experimental endpoint>
TGI

>  <Endpoint value>
> 100 µM

$$$$
>  <Compound>
NCCCCCS(=O)(=O)O

>  <Experimental endpoint>
TGI

>  <Endpoint value>
> 100 µM

$$$$
>  <Compound>
Cc1nnc2cc(C(=O)O)c3ccccc3n2c1=O

>  <Experimental endpoint>
TGI

>  <Endpoint value>
> 10 µM

$$$$
>  <Compound>
O=c1[nH]c(=O)n(C2OC(COP(=O)(O)OP(=O)(O)O)C(O)C2O)cc1F (stereo not drawn)

>  <Experimental endpoint>
TGI

>  <Endpoint value>
> 50 µM

$$$$
>  <Compound>
C/C(=C\c1ccc(Cl)cc1)C(C)(C)C(=O)O

>  <Experimental endpoint>
TGI

>  <Endpoint value>
> 100 µM

$$$$
>  <Compound>
CC1(C)N=C(N)N=C(N)N1c1cccc(C#N)c1

>  <Experimental endpoint>
TGI

>  <Endpoint value>
> 100 µM

$$$$
>  <Compound>
CNC(=O)CCC(NC(C)=O)C(=O)NC(Cc1ccc(NC(=O)CCCCC(C)=O)cc1)C(=O)NC(CCC(=O)NC)C(=O)NC (stereo not drawn)

>  <Experimental endpoint>
TGI

>  <Endpoint value>
> 100 µM

$$$$
>  <Compound>
CCCCCCCCCCCCn1c(C)nc2ccccc21

>  <Experimental endpoint>
TGI

>  <Endpoint value>
41.1 µM

$$$$
>  <Compound>
CC(NC(=O)/C(=C/c1ccccc1O)NC(=O)c1ccccc1)C(=O)O (stereo not drawn)

>  <Experimental endpoint>
TGI

>  <Endpoint value>
32.9 µM

$$$$
>  <Compound>
COC(=O)C1=C(O)C(C(=O)OC)[C@@]2(O)[C@@H](C(=O)OC)C(c3ccc(OC(=O)/C(=C/c4ccc(Cl)cc4)c4ccc(Cl)cc4)cc3)C[C@@H]1[C@@H]2C(=O)OC (stereo partly drawn)

>  <Experimental endpoint>
TGI

>  <Endpoint value>
> 100 µM

$$$$
>  <Compound>
NC(Cc1cc(I)c(O)c(I)c1)C(=O)O (stereo not drawn)

>  <Experimental endpoint>
TGI

>  <Endpoint value>
> 500 µM

$$$$
